Data origin, for the record: ChEMBL document CHEMBL3392963

molecular target: UniProtKB P9WGR1; assay: Inhibition of Mycobacterium tuberculosis recombinant InhA assessed as NADH oxidation to NAD+ using 2-trans-dodecenoyl-CoA substrate by UV/visible spectrophotometry
pIC50: −log10 of the molar value.
Binary call on pIC50: 1 (yes) from 6 upward, 0 (no) beneath that.

Worked examples, 5 compounds total:
COc1ccc(C(=O)N2CCN(C(c3ccccc3)c3ccccc3)CC2)cc1 | 0 (no)
O=C(c1ccccc1F)N1CCN(C2c3ccccc3-c3ccccc32)CC1 | 1 (yes)
O=S(=O)(c1ccccc1)N1CCN(C2c3ccccc3-c3ccccc32)CC1 | 0 (no)
O=C(c1ccc(Cl)cc1)N1CCN(C2c3ccccc3-c3ccccc32)CC1 | 0 (no)
O=C(c1ccncc1)N1CCN(C2c3ccccc3-c3ccccc32)CC1 | 0 (no)

[ask] Could you verify whether the entry "Cc1ccccc1S(=O)(=O)N1CCN(C2c3ccccc3-c3ccccc32)CC1" shows pIC50 of no less than 6?
[reply] 0 (no)

[ask] Could you verify whether the entry "O=C(c1cc(F)ccc1F)N1CCN(C(c2ccccc2)c2ccccc2)CC1" shows pIC50 of no less than 6?
[reply] 0 (no)

[ask] Could you verify whether the entry "O=S(=O)(c1ccccc1)N1CCN(C(c2ccccc2)c2ccccc2)CC1" shows pIC50 of no less than 6?
[reply] 0 (no)

[ask] Could you verify whether the entry "O=C(c1cccc(F)c1)N1CCN(C2c3ccccc3-c3ccccc32)CC1" shows pIC50 of no less than 6?
[reply] 1 (yes)

[ask] Could you verify whether the entry "Cc1ccc(C(=O)N2CCN(C3c4ccccc4-c4ccccc43)CC2)cc1" shows pIC50 of no less than 6?
[reply] 1 (yes)

[ask] Could you verify whether the entry "O=C(c1ccc(F)cc1)N1CCN(C2c3ccccc3-c3ccccc32)CC1" shows pIC50 of no less than 6?
[reply] 1 (yes)

[ask] Could you verify whether the entry "O=C(c1ccccc1)N1CCN(C(c2ccccc2)c2ccccc2)CC1" shows pIC50 of no less than 6?
[reply] 0 (no)

[ask] Could you verify whether the entry "Cc1cccc(C(=O)N2CCN(C3c4ccccc4-c4ccccc43)CC2)c1" shows pIC50 of no less than 6?
[reply] 1 (yes)

[ask] Could you verify whether the entry "O=C(CN1CCN(C2c3ccccc3-c3ccccc32)CC1)Nc1ccccc1" shows pIC50 of no less than 6?
[reply] 0 (no)

[ask] Could you verify whether the entry "O=C(/C=C/c1ccccc1)N1CCN(C2c3ccccc3-c3ccccc32)CC1" shows pIC50 of no less than 6?
[reply] 0 (no)

[ask] Could you verify whether the entry "O=C(c1ccc([N+](=O)[O-])cc1)N1CCN(C2c3ccccc3-c3ccccc32)CC1" shows pIC50 of no less than 6?
[reply] 0 (no)

[ask] Could you verify whether the entry "O=C(c1ccccc1)N1CCN(C2c3ccccc3-c3ccccc32)CC1" shows pIC50 of no less than 6?
[reply] 1 (yes)

[ask] Could you verify whether the entry "O=C(c1ccc(F)cc1)N1CCN(C(c2ccccc2)c2ccccc2)CC1" shows pIC50 of no less than 6?
[reply] 0 (no)

[ask] Could you verify whether the entry "O=C(c1cc(F)ccc1F)N1CCN(C2c3ccccc3-c3ccccc32)CC1" shows pIC50 of no less than 6?
[reply] 0 (no)

[ask] Could you verify whether the entry "COc1ccc(C(=O)N2CCN(C3c4ccccc4-c4ccccc43)CC2)cc1" shows pIC50 of no less than 6?
[reply] 0 (no)

[ask] Could you verify whether the entry "c1ccc(CN2CCN(C3c4ccccc4-c4ccccc43)CC2)cc1" shows pIC50 of no less than 6?
[reply] 0 (no)

[ask] Could you verify whether the entry "Cc1ccccc1C(=O)N1CCN(C2c3ccccc3-c3ccccc32)CC1" shows pIC50 of no less than 6?
[reply] 0 (no)

###

Measured Kii on UniProt P9WGR1 follows.
Answers are plain numbers, in µM.

COc1ccc(C(=O)N2CCN(C3c4ccccc4-c4ccccc43)CC2)cc1 | 1.95

List the reported Kii of each molecule below.
1. O=C(c1cccc(F)c1)N1CCN(C2c3ccccc3-c3ccccc32)CC1
2. O=C(c1cc(F)ccc1F)N1CCN(C2c3ccccc3-c3ccccc32)CC1
3. O=C(c1ccccc1F)N1CCN(C2c3ccccc3-c3ccccc32)CC1
4. Cc1cccc(C(=O)N2CCN(C3c4ccccc4-c4ccccc43)CC2)c1
5. O=C(c1ccc(Cl)cc1)N1CCN(C2c3ccccc3-c3ccccc32)CC1
6. O=C(c1ccc(F)cc1)N1CCN(C2c3ccccc3-c3ccccc32)CC1

[reply]
[0.147, 1.28, 0.332, 0.185, 1.12, 0.348]

###

Assign Kis to each entry below.
target: Enoyl-[acyl-carrier-protein] reductase [NADH] (Mycobacterium tuberculosis) (UniProt P9WGR1)
Answers are plain numbers, in µM.

O=C(c1ccccc1F)N1CCN(C2c3ccccc3-c3ccccc32)CC1 | 0.149
O=C(c1cc(F)ccc1F)N1CCN(C2c3ccccc3-c3ccccc32)CC1 | 0.788

List the reported Kis of each molecule below.
1. Cc1cccc(C(=O)N2CCN(C3c4ccccc4-c4ccccc43)CC2)c1
2. O=C(c1ccc(Cl)cc1)N1CCN(C2c3ccccc3-c3ccccc32)CC1
3. COc1ccc(C(=O)N2CCN(C3c4ccccc4-c4ccccc43)CC2)cc1

[reply]
1. 0.162
2. 2.77
3. 1.6

###

Target: UniProtKB P9WGR1
Sequence (whole entry): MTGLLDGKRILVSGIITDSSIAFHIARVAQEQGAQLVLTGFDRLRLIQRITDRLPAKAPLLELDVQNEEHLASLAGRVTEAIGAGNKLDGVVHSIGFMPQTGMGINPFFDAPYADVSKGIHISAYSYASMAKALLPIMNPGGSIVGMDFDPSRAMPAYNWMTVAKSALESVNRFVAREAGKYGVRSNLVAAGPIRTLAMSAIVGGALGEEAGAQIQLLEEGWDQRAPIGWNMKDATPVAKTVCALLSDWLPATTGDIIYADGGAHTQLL
test_readout: log10(Kii) (log10 of the value in µM)
Answers are given as log10 of Kii in µM.

Sample answers from the record:
Cc1cccc(C(=O)N2CCN(C3c4ccccc4-c4ccccc43)CC2)c1 | -0.46
O=C(c1ccccc1F)N1CCN(C2c3ccccc3-c3ccccc32)CC1 | -0.18
O=C(c1cc(F)ccc1F)N1CCN(C2c3ccccc3-c3ccccc32)CC1 | 0.51
COc1ccc(C(=O)N2CCN(C3c4ccccc4-c4ccccc43)CC2)cc1 | 0.86

log10(Kii) reported for this molecule "O=C(c1ccc(Cl)cc1)N1CCN(C2c3ccccc3-c3ccccc32)CC1" : 0.30

###

target: Enoyl-[acyl-carrier-protein] reductase [NADH] (Mycobacterium tuberculosis, UniProt P9WGR1); assay: Inhibition of Mycobacterium tuberculosis recombinant InhA assessed as NADH oxidation to NAD+ using 2-trans-dodecenoyl-CoA substrate by UV/visible spectrophotometry
test_readout: IC50

Sample answers from the record:
Cc1ccc(C(=O)N2CCN(C(c3ccccc3)c3ccccc3)CC2)cc1 | 7.83 µM
O=C(c1ccc(Cl)cc1)N1CCN(C(c2ccccc2)c2ccccc2)CC1 | > 50 µM

We now examine a further compound.
The observed IC50 for "O=C(/C=C/c1ccccc1)N1CCN(C(c2ccccc2)c2ccccc2)CC1" when tested with Enoyl-[acyl-carrier-protein] reductase [NADH] (Mycobacterium tuberculosis, UniProt P9WGR1) stands at > 50 µM
